Cited source: the NIST ThermoML archive (doi:10.1021/je900550v)

settings: 323.91 K; 101.33 kPa; Liquid; Vibrating tube method
property_label: mass density (kg/m3)

>>> numeric_result("CCC(=O)[O-].C[NH2+]CCO [2-hydroxy-N-methylethanaminium propionate]")
1054.31
>>> numeric_result("C[NH2+]CCO.O=C[O-] [2-hydroxy-N-methylethanaminium formate]")
1113.92
>>> numeric_result("CC(C)C(=O)[O-].C[NH2+]CCO [2-hydroxy-N-methylethanaminium isobutyrate]")
1026.53
>>> numeric_result("CCCCC(=O)[O-].C[NH2+]CCO [2-hydroxy-N-methylethanaminium pentanoate]")
998.715
>>> numeric_result("CC(=O)[O-].C[NH2+]CCO [N-methyl-2-hydroxyethylammonium acetate]")
1085.15
>>> numeric_result("CCCC(=O)[O-].C[NH2+]CCO [N-methyl-2-hydroxyethylammonium butanoate]")
1021.74
